Every entry's value here was drawn from patent US20150328329A1.

# test_target: native CD81 on Raji cells (Homo sapiens)
# Construct: endogenous in cells; host or cells: Raji (human B cell line)
# Sequence (P60033 1-236): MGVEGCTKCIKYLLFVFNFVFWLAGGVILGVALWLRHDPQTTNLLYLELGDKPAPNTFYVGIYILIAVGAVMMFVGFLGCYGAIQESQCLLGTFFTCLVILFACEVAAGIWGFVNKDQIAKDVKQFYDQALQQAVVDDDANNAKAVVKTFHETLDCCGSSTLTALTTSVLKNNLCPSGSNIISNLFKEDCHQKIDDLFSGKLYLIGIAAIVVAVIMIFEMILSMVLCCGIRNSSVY
# test_method_notes: Competition assay: inhibition of FITC-labeled JS-81 anti-CD81 antibody binding to native CD81 on live Raji cells (flow cytometry)
# Type: cell-based
# experimental_conditions: 400 μM ligand
measurement_type: Inhibition of JS-81 Binding (%)
I only need the number, in %, no unit after it.

CNC1(C(N)=O)CCNCC1 has a reported Inhibition of JS-81 Binding (%) of 52

New cases:
c1cncc(C2CCCCN2)c1 (stereo not drawn) has a reported Inhibition of JS-81 Binding (%) of 20

NC(=O)NC(=O)c1nccnc1C(=O)O has a reported Inhibition of JS-81 Binding (%) of 26
